Each recorded value in this set is attributed to PubChem BioAssay (Tox21).

# studySystem: Progesterone receptor (Homo sapiens) (UniProt P06401)
# Sequence (P06401 whole entry, looked up): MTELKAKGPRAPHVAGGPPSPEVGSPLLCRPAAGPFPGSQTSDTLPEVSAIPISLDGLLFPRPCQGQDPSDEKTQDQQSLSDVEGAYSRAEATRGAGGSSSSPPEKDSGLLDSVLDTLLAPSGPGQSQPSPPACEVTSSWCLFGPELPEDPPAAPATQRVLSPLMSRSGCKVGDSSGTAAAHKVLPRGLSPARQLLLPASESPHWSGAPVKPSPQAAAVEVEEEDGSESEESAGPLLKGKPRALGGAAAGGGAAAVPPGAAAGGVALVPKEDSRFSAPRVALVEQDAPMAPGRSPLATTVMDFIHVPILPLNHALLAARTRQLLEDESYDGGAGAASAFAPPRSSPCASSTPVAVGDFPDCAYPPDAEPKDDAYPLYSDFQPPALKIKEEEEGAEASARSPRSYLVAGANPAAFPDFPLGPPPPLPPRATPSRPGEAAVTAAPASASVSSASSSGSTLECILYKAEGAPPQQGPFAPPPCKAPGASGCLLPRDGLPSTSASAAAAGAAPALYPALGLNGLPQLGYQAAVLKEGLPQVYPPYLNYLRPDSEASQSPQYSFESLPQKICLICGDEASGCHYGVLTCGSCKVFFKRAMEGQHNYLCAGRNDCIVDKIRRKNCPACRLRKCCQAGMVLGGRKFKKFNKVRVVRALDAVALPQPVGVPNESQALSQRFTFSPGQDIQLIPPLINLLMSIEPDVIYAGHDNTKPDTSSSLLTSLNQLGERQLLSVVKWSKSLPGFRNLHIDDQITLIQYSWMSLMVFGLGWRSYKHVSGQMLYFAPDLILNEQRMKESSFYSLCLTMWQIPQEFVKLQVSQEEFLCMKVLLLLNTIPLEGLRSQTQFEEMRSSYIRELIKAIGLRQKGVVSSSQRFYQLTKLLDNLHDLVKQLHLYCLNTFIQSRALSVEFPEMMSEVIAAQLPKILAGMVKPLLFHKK
# procedureDetails: qHTS assay to identify small molecule agonists of the progesterone receptor (PR) signaling pathway (AID 1346784); also: nearly all actives have a fitted effect of over 30% in size
# statedConditions: PR-UAS-bla HEK293T, beta-lactamase FRET ratio, 16 h; series mostly up to 92.4 µM
Records with an inconclusive call do not appear. Active and inactive are the calls of the source. Calls follow the shape of the full dose curve.
Select the correct class. Options are active, inactive and nothing else.

Please share the test call associated with ClC1=C(Cl)[C@]2(Cl)[C@@H]3[C@H]4C[C@H]([C@@H]5O[C@H]45)[C@@H]3[C@@]1(Cl)C2(Cl)Cl .
inactive

Just curious, what result did Nc1c(Cl)c(Cl)c(Cl)c(Cl)c1Cl get here?
active

Called result for CNC(=O)Oc1cc(C)cc(C(C)C)c1
inactive

Please let me know the test result on file for CCNc1nc(NC(C)C(C)C)nc(SC)n1 (configuration not stated) .
inactive

Hi team, can someone confirm the assay call for CC(C)N(C(=O)SC/C(Cl)=C/Cl)C(C)C ?
inactive

Would you mind telling me which call this test gave CC(C)(C)c1ccc(OP(=O)(Oc2ccccc2)Oc2ccccc2)cc1 ?
inactive

What classification did CN1C(=O)[C@@H](NC(=O)c2cc3ccccc3[nH]2)N=C(c2ccccc2)c2ccccc21 end up with in this test?
inactive

# fetch the recorded call for CC(Cl)CCl (configuration not stated) here
inactive

Called result for Oc1ccc([C@H]2CNCc3c2ccc(O)c3O)cc1O
inactive

Which outcome did this test record for the compound Cc1cnc2c(C(=O)O)c(Cl)ccc2c1 ?
inactive

Per the assay record, what outcome was assigned to CC(=O)[O-].CC(=O)[O-].CC(=O)[O-].[Cr+3] ?
inactive

What is the recorded call for this compound in the test? BrCCCBr
inactive

###

# procedureDetails: A CellTox Green Cytotoxicity Assay to monitor cytotoxicity in HEK293 cells - 32 hour (AID 1224881); also: nearly all actives have a fitted effect of over 40% in size
# statedConditions: CellTox Green fluorescence; series mostly up to 76.8 µM
Results filed as inconclusive are left out. The source made the active and inactive calls. Calls follow the shape of the dose curve; as a rule, active = well fitted activation curve with a large enough effect in the repeat runs; inconclusive = weak or mixed curves; inactive = flat fitted curve, though single readings scatter.
The reply should name one outcome from active, inactive

Hi, sorry to bother you, what did the test record for COc1c2c(cc3c1OCO3)CCN(C)C2 ?
inactive

Tell me the assay call for O=[N+]([O-])c1ccccc1-c1ccccc1 please.
inactive

In this assay, the call recorded for CN was what?
inactive

For CC(=O)[O-].CC(=O)[O-].[Co+2] , which call appears in the assay record?
inactive

// param item: Clc1ccc(C(Cl)(Cl)Cl)cc1Cl ; yields the recorded call
active

For [O]=[Cr](=[O])([OH])[O][Cr](=[O])(=[O])[OH] , what call appears in the results of this test?
inactive

Please indicate how the test categorized O.O.O.O=C([O-])[C@H]([O-])[C@@H]([O-])C(=O)[O-].O=C([O-])[C@H]([O-])[C@@H]([O-])C(=O)[O-].[K+].[K+].[Sb+3].[Sb+3] .
inactive

Please indicate how the test categorized CCOP(=S)(OCC)Oc1cc(C)nc(N(CC)CC)n1 .
inactive

Recorded test outcome, item Clc1ccc(C(c2ccc(Cl)cc2)C(Cl)Cl)cc1
active

Record request — test call for CCCCCON=O
inactive

Given Oc1cccc(Cl)c1Cl , state the outcome it received in this test.
inactive

Answer briefly: the call reported for CCC1(CC)C(=O)N=C(O)NC1=O in this assay.
inactive

Write down the call the test reported for this compound. Item: CNC(=O)O/N=C(\C)C(C)S(C)(=O)=O (stereo not drawn)
inactive
